- measurement description: chemical genetic growth profiling, strain panel (AID 1159580);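 further: tested at 20 µM; growth read once vehicle control cultures reached saturation at 30 °C; 1 = growth at the plate median or of vehicle wells; lower values mean less growth of the strain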
- assay context: S. cerevisiae deletion strains, growth OD, locus YNL207W, strain RIO2, stronger effect = lower value
The whole screen tested about 5,500 compounds, of which about 2,000 (36%) were called active. Another 18% or so got no clear call; they are omitted. The list shows a part of the results.
reported metric: normalized growth
No unit in the answer, please; the number alone is enough.

Solved cases below.
In: Respond only with normalized growth recorded for `CC(C)(C)c1ccc(N/N=C(\C#N)C(N)=O)cc1`
Out: 0.102

In: Respond only with normalized growth recorded for COc1ccc(C(CC(=O)c2ccccc2)Sc2ccccc2N)cc1OC (configuration not stated)
Out: 0.975

In: Respond only with normalized growth recorded for `Oc1c(Cl)cc(Cl)cc1C=Nc1nc(-c2ccc3ccccc3c2)cs1`
Out: 0.959

In: Respond only with normalized growth recorded for `COc1cc(Cl)ccc1N/N=C(/C#N)C(N)=O`
Out: 0.107

In: Respond only with normalized growth recorded for `N#C/C(=N/Nc1ccc(F)cc1)C(=O)c1ccccc1`
Out: 0.83

Further cases:
In: Respond only with normalized growth recorded for `CC(=O)/C(C#N)=N\Nc1ccc(F)cc1`
Out: 0.632

In: Respond only with normalized growth recorded for `CC1(C)CC(=O)C=C(Sc2nc3ccccc3o2)C1`
Out: 0.948

In: Respond only with normalized growth recorded for `N/C(Cn1ccc(C(F)(F)F)n1)=N/OS(=O)(=O)c1cccc(Cl)c1Cl`
Out: 0.977
